Listed below: TD50 values for each entry.
System: rodent lifetime carcinogenesis bioassay, tumor incidence TD50
run-description: carcinogenic potency in animals, long-term in vivo studies, CPDB compilation (AID 1745844)
cond: rat; strain Fischer 344; females; in feed; site: urinary bladder; lesion: transitional-cell carcinoma; dosed 103 weeks; study length 104 weeks

structure-notation	TD50
Nc1ccc(N)c2c1C(=O)c1c(N)ccc(N)c1C2=O	307 mg/kg/day

Next:
Prompt: // returns reported TD50 for input Nc1c(Br)cc(Br)c2c1C(=O)c1ccccc1C2=O
Response: 656 mg/kg/day

###

System: rodent lifetime carcinogenesis bioassay, tumor incidence TD50
run-description: carcinogenic potency in animals, long-term in vivo studies, CPDB compilation (AID 1745844)
cond: rat; strain Fischer 344; males; by gavage; site: pituitary gland, anterior; lesion: adenoma, NOS; dosed 103 weeks; study length 104 weeks
measured-quantity: TD50 (mg/kg/day)
Report the figure in mg/kg/day without appending any unit label.

structure-notation	readout-units	TD50
CC1(C)S[C@@H]2[C@H](NC(=O)COc3ccccc3)C(=O)N2[C@H]1C(=O)O	mg/kg/day	949

Prompt: // returns reported TD50 for input S=c1[nH]c2ccccc2s1
Response: 333

###

Tested on: rodent lifetime carcinogenesis bioassay, tumor incidence TD50
run-description: carcinogenic potency in animals, long-term in vivo studies, CPDB compilation (AID 1745844)
cond: rat; strain F344/DuCrj; males; in feed; site: Zymbal's gland; lesion: squamous-cell carcinoma; dosed 56 weeks; study length 56 weeks
measured-quantity: TD50

Prompt: // returns reported TD50 for input Cc1cnc2ccc3c(nc(N)n3C)c2n1
Response: 8.6 mg/kg/day

###

System: rodent lifetime carcinogenesis bioassay, tumor incidence TD50
run-description: carcinogenic potency in animals, long-term in vivo studies, CPDB compilation (AID 1745844)
cond: mouse; strain C57BL/6JfC3Hf/Nctr x BALB/cStCrlfC3Hf/Nctr; females; in drinking water; site: liver; lesion: hepatocellular carcinoma; dosed 60 weeks; study length 60 weeks
measured-quantity: TD50

Prompt: // returns reported TD50 for input Nc1ccc(-c2ccc(N)cc2)cc1
Response: 17.1 mg/kg/day

###

System: rodent lifetime carcinogenesis bioassay, tumor incidence TD50
run-description: carcinogenic potency in animals, long-term in vivo studies, CPDB compilation (AID 1745844)
cond: rat; strain Fischer 344; females; in drinking water; site: liver; lesion: hemangiosarcoma; dosed 50 weeks; study length 120 weeks
measured-quantity: TD50 (mg/kg/day)
Report the figure in mg/kg/day without appending any unit label.

Prompt: // returns reported TD50 for input O=NN(CCO)CCO
Response: 45.4

###

System: rodent lifetime carcinogenesis bioassay, tumor incidence TD50
run-description: carcinogenic potency in animals, long-term in vivo studies, CPDB compilation (AID 1745844)
cond: mouse; strain CFLP; males; in feed; site: liver; lesion: hepatocellular adenoma; dosed 96 weeks; study length 96 weeks
Calls of active or inactive are those of the source. How the calls were made is not given here.
measured-quantity: TD50

Prompt: // returns reported TD50 for input S=C([S-])NCCNC(=S)[S-].[Zn+2]
Response: 420 mg/kg/day (inactive)

###

Test system: rodent lifetime carcinogenesis bioassay, tumor incidence TD50
run-description: carcinogenic potency in animals, long-term in vivo studies, CPDB compilation (AID 1745844)
cond: mouse; strain B6C3F1; females; in feed; site: any site (literature study); lesion: several types; types named in the paper; dosed 103 weeks; study length 103 weeks
Calls of active or inactive are those of the source. No rule for the calls is given here.
Listed below: TD50 values for each entry.

structure-notation	TD50
COc1ccc([N+](=O)[O-])cc1N=Nc1c(O)c(C(=O)Nc2cccc([N+](=O)[O-])c2)cc2ccccc12	29700 mg/kg/day (inactive)
Nc1ccc2cc3ccc(N)cc3nc2c1	86.2 mg/kg/day

Prompt: // returns reported TD50 for input CN(C)C(=O)Nc1cccc(C(F)(F)F)c1
Response: 369 mg/kg/day (inactive)

###

Tested on: rodent lifetime carcinogenesis bioassay, tumor incidence TD50
run-description: carcinogenic potency in animals, long-term in vivo studies, CPDB compilation (AID 1745844)
cond: rat; strain Fischer 344; females; in feed; site: all sites; lesion: mononuclear-cell leukemia; dosed 78 weeks; study length 104 weeks
measured-quantity: TD50

Prompt: // returns reported TD50 for input CC(C)CCCCCCOC(=O)c1ccccc1C(=O)OCCCCCCC(C)C
Response: 1140 mg/kg/day

###

System: rodent lifetime carcinogenesis bioassay, tumor incidence TD50
run-description: carcinogenic potency in animals, long-term in vivo studies, CPDB compilation (AID 1745844)
cond: rat; strain Wistar; males; in drinking water; site: liver; lesion: hepatocellular tumor; dosed 104 weeks; study length 104 weeks
measured-quantity: TD50

Prompt: // returns reported TD50 for input O=C1OC(O)C(C(Cl)Cl)=C1Cl (stereo unspecified)
Response: 17.7 mg/kg/day

###

Tested on: rodent lifetime carcinogenesis bioassay, tumor incidence TD50
run-description: carcinogenic potency in animals, long-term in vivo studies, CPDB compilation (AID 1745844)
cond: rat; strain Charles River CD (Sprague-Dawley); males; in feed; site: urinary bladder; lesion: transitional-cell carcinoma; dosed 142 weeks; study length 142 weeks
measured-quantity: TD50

Prompt: // returns reported TD50 for input O=C1NS(=O)(=O)c2ccccc21
Response: 31100 mg/kg/day

###

Test system: rodent lifetime carcinogenesis bioassay, tumor incidence TD50
run-description: carcinogenic potency in animals, long-term in vivo studies, CPDB compilation (AID 1745844)
cond: rat; strain MRC-Wistar; males; in drinking water; site: any site (literature study); lesion: several types; types named in the paper; dosed 52 weeks; study length 130 weeks
measured-quantity: TD50 (mg/kg/day)
Report the figure in mg/kg/day without appending any unit label.

Prompt: // returns reported TD50 for input CN(N=O)C(=O)c1ccccc1
Response: 2.49

###

Test system: rodent lifetime carcinogenesis bioassay, tumor incidence TD50
run-description: carcinogenic potency in animals, long-term in vivo studies, CPDB compilation (AID 1745844)
cond: rat; strain Fischer 344; males; in feed; site: peritoneum; lesion: sarcoma, NOS; dosed 78 weeks; study length 104 weeks
measured-quantity: TD50 (mg/kg/day)
Report the figure in mg/kg/day without appending any unit label.

Prompt: # query: TD50 | item Nc1ccc(S(=O)(=O)c2ccc(N)cc2)cc1 | system: rodent lifetime carcinogenesis bioassay, tumor incidence TD50
Response: 91.3

###

System: rodent lifetime carcinogenesis bioassay, tumor incidence TD50
run-description: carcinogenic potency in animals, long-term in vivo studies, CPDB compilation (AID 1745844)
cond: rat; strain Wistar; males; in feed; site: any site (literature study); lesion: malignant tumor; dosed 104 weeks; study length 104 weeks
Active and inactive are the calls of the source. How the calls were made is not given here.
Listed below: TD50 values for each entry.

Prompt: // returns reported TD50 for input CCOC(=O)C1OC1(C)c1ccccc1 (stereo not drawn)
Response: 4110 mg/kg/day (inactive)

Prompt: // returns reported TD50 for input CCn1cc(C(=O)O)c(=O)c2cc3c(cc21)OCO3
Response: 1790 mg/kg/day

Prompt: // returns reported TD50 for input C/C=C/C=C/C(=O)O
Response: 51400 mg/kg/day (inactive)

###

Test system: rodent lifetime carcinogenesis bioassay, tumor incidence TD50
run-description: carcinogenic potency in animals, long-term in vivo studies, CPDB compilation (AID 1745844)
cond: hamster; strain Syrian Golden; males; by gavage; site: any site (literature study); lesion: several types; types named in the paper; dosed 35 weeks; study length 76 weeks
measured-quantity: TD50
Answer by giving the amount and then stating its unit.

Prompt: // returns reported TD50 for input CC1CN(N=O)CC(C)N1N=O (stereo unspecified)
Response: 0.932 mg/kg/day

###

Tested on: rodent lifetime carcinogenesis bioassay, tumor incidence TD50
run-description: carcinogenic potency in animals, long-term in vivo studies, CPDB compilation (AID 1745844)
cond: rat; strain F344/DuCrj; females; in feed; site: skin; lesion: squamous-cell carcinoma; dosed 61 weeks; study length 61 weeks
measured-quantity: TD50

Prompt: // returns reported TD50 for input Cc1cnc2ccc3c(nc(N)n3C)c2n1
Response: 87.2 mg/kg/day

###

Tested on: rodent lifetime carcinogenesis bioassay, tumor incidence TD50
run-description: carcinogenic potency in animals, long-term in vivo studies, CPDB compilation (AID 1745844)
cond: mouse; strain B6C3F1; males; inhaled; site: forestomach; lesion: squamous-cell carcinoma + squamous-cell papilloma; dosed 82 weeks; study length 104 weeks
measured-quantity: TD50

Prompt: // returns reported TD50 for input C=CC=C
Response: 197 mg/kg/day

###

System: rodent lifetime carcinogenesis bioassay, tumor incidence TD50
run-description: carcinogenic potency in animals, long-term in vivo studies, CPDB compilation (AID 1745844)
cond: rat; strain Fischer 344; males; in drinking water; site: nasal cavity; lesion: several types; types named in the paper; dosed 30 weeks; study length 75 weeks
measured-quantity: TD50

Prompt: // returns reported TD50 for input CC(O)CN(C)N=O (stereo unspecified)
Response: 0.0442 mg/kg/day

###

System: rodent lifetime carcinogenesis bioassay, tumor incidence TD50
run-description: carcinogenic potency in animals, long-term in vivo studies, CPDB compilation (AID 1745844)
cond: monkey; strain Rhesus [Macaca mulatta]; females; in feed; site: uterus; lesion: leiomyoma; dosed 391 weeks; study length 521 weeks
Calls of active or inactive are those of the source. No rule for the calls is given here.
measured-quantity: TD50

Prompt: # query: TD50 | item C#C[C@]1(OC(C)=O)CC[C@H]2[C@@H]3CCC4=CC(=O)CC[C@@H]4[C@H]3CC[C@@]21C (tested in a mixture with another compound) | system: rodent lifetime carcinogenesis bioassay, tumor incidence TD50
Response: 6.42 mg/kg/day (inactive)
